target: Chymotrypsin-like elastase family member 1 (Pig)
Sequence (P00772 whole entry): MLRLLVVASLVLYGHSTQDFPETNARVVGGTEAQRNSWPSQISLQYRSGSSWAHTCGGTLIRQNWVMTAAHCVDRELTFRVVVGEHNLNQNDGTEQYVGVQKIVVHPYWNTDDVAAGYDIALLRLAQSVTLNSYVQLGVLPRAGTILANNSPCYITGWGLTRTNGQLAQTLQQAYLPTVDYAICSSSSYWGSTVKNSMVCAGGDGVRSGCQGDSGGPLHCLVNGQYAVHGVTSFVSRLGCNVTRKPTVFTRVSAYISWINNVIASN
pIC50: −log10 of the molar value.
We begin with a simple list: items and their reported pIC50.

Consider the reported pIC50 for these molecules:
{"molecule": "CCCCCC(=O)OC1C(C)OC(OCC2OC(Oc3c(-c4ccc(O)c(O)c4)oc4cc(O)cc(O)c4c3=O)C(O)C(O)C2O)C(O)C1O (stereo unspecified) [Rutin caproate]", "readout value": "< 3.30"}
{"molecule": "CCCCCCCCCCCCCCCC(=O)OC1C(C)OC(OCC2OC(Oc3c(-c4ccc(O)c(O)c4)oc4cc(O)cc(O)c4c3=O)C(O)C(O)C2O)C(O)C1O (stereo unspecified) [Rutin palmitate]", "readout value": "< 3.30"}
{"molecule": "CCCCCCCCCCCC(=O)OCC1OC(Oc2cc(O)cc(O)c2C(=O)CCc2ccc(O)cc2)C(O)C(O)C1O (stereo unspecified) [Phloridzin laurate]", "readout value": "< 3.30"}
{"molecule": "CC1OC(OCC2OC(Oc3c(-c4ccc(O)c(O)c4)oc4cc(O)cc(O)c4c3=O)C(O)C(O)C2O)C(O)C(O)C1O (stereo unspecified)", "readout value": 4.00}
{"molecule": "CCCCCCCCCCCCCCCCCC(=O)OC1C(C)OC(OCC2OC(Oc3c(-c4ccc(O)c(O)c4)oc4cc(O)cc(O)c4c3=O)C(O)C(O)C2O)C(O)C1O (stereo unspecified) [Rutin stearate]", "readout value": "< 3.30"}

// returns pIC50 for CCCCCCCCCCCCCC(=O)OC1C(C)OC(OCC2OC(Oc3c(-c4ccc(O)c(O)c4)oc4cc(O)cc(O)c4c3=O)C(O)C(O)C2O)C(O)C1O (stereo unspecified) [Rutin myristate] with Chymotrypsin-like elastase family member 1 (Pig); value = < 3.30

====

Listed here: compounds with reported pIC50 for UniProtKB P00772.
In simple prose, pIC50 is minus the logarithm base ten of a concentration in moles per litre.

{"compound": "O=C(CCc1ccc(O)cc1)c1c(O)cc(O)cc1OC1OC(CO)C(O)C(O)C1O (centres undefined)", "quantity kind": "pIC50", "readout value": 4.00}
{"compound": "CCCCCCCCCCCC(=O)OCC1OC(Oc2cc3ccc(=O)oc3cc2O)C(O)C(O)C1O (centres undefined) [Esculin laurate]", "quantity kind": "pIC50", "readout value": 4.70}

Consider now this further compound.
// returns pIC50 for CCCCCCCCCCCCCC(=O)OCC1OC(Oc2cc3ccc(=O)oc3cc2O)C(O)C(O)C1O (centres undefined) [Esculin myristate] with UniProtKB P00772; value = 4.60

====

Listed here: compounds with reported pIC50 for Serine protease 1 (Bos taurus, UniProt P00760).
In simple prose, pIC50 is minus the logarithm base ten of a concentration in moles per litre.

Consider the reported pIC50 for these compounds:
{"compound": "N=C(N)Nc1ccc(C(=O)O)cc1 [4-Guanidinobenzoate]", "pIC50": 3.35}
{"compound": "CCCCCCCC/C=C\\CCCCCCCC(=O)OC1C(C)OC(OCC2OC(Oc3c(-c4ccc(O)c(O)c4)oc4cc(O)cc(O)c4c3=O)C(O)C(O)C2O)C(O)C1O (centres undefined) [Rutin oleate]", "pIC50": 4.22}
{"compound": "CC1OC(OCC2OC(Oc3c(-c4ccc(O)c(O)c4)oc4cc(O)cc(O)c4c3=O)C(O)C(O)C2O)C(O)C(O)C1O (centres undefined)", "pIC50": 4.40}

Consider now this further compound.
// returns pIC50 for CCCCCCCCCCCCCC(=O)OCC1OC(Oc2cc3ccc(=O)oc3cc2O)C(O)C(O)C1O (centres undefined) [Esculin myristate] with Serine protease 1 (Bos taurus, UniProt P00760); value = 3.92
